Biological target: human IL-13 (human, UniProt P35225 25-146, limits assumed)
Sequence (P35225 other isoform, or with tags, fused parts or gaps limits assumed): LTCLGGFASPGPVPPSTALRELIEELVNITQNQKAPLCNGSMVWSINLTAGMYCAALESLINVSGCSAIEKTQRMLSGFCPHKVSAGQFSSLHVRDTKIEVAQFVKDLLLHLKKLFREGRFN
Test: cell-based or functional assay
endpoint_name: IC50, HEK-Blue IL-13Ra1/IL-4Ra STAT6-SEAP reporter assay (µg/mL)
Give just the numeric value; µg/mL need not be written.

INPUT: # query: IC50, HEK-Blue IL-13Ra1/IL-4Ra STAT6-SEAP reporter assay of entry AbA (antibody, human IgG1, kappa, V domains shown) VH: QVTLRESGPALVKPTQTLTLTCTVSGFSLSAYSVNWIRQPPGKALEWLAMIWGDGKIVYNSALKSRLTISKDTSKNQVVLTMTNMDPVDTATYYCAGDGYYPYAMDNWGQGSLVTVSS VL: DIVMTQSPDSLSVSLGERATINCRASKSVDSYGRSYMHWYQQKPGQPPKLLIYLASNLESGVPDRFSGSGSGTDFTLTISSLQAEDVAVYYCQQNNEDPRTFGGGTKVEIKR
OUTPUT: 0.123

INPUT: # query: IC50, HEK-Blue IL-13Ra1/IL-4Ra STAT6-SEAP reporter assay of entry AbL (antibody, human IgG1, kappa, V domains shown) VH: QVTLRESGPALVKPTQTLTLTCTVSGFSLSRYSVNWIRQPPGKALEWLAMIWGDGKIVYNSALKSRLTISKDTSKNQVVLTMTNMDPVDTATYYCAGDGYYPYAMDNWGQGSLVTVSS VL: DIVMTQSPDSLSVSLGERATINCRASKSVDSYGRSYMHWYQQKPGQPPKLLIYLASNLESGVPDRFSGSGSGTDFTLTISSLQAEDVAVYYCQQNNEDPRTFGGGTKVEIKR
OUTPUT: 0.32

INPUT: # query: IC50, HEK-Blue IL-13Ra1/IL-4Ra STAT6-SEAP reporter assay of entry AbM (antibody, human IgG1, kappa, V domains shown) VH: QVTLRESGPALVKPTQTLTLTCTVSGASLSAYSVNWIRQPPGKALEWLAMIWGDGKIVYNSALKSRLTISKDTSKNQVVLTMTNMDPVDTATYYCAGDGYFPYAMDNWGQGSLVTVSS VL: DIVMTQSPDSLSVSLGERATINCRASKSVDYYGRSYMHWYQQKPGQPPKLLIYLASNLESGVPDRFSGSGSGTDFTLTISSLQAEDVAVYYCQQNNEDPRTFGGGTKVEIKR
OUTPUT: 0.136

Hey, just so you know, these numbers are from patent US20260116963A1.
